system name: T1, 4H3625-AA
T1 chain: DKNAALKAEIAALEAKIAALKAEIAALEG
method description: two-hybrid library CCmax;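 note: natural log of median RNA to DNA barcode read ratio; higher means stronger binding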
conditions used: mean of both orientations
observable: interaction score

Answered examples (3):
binder: DKIAALEAENAALEAKIAALEAENAALEG [4H2211-AA]
observable: interaction score
measured value: -1.16

binder: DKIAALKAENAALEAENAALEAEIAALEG [4H2705-AA]
observable: interaction score
measured value: -2.01

binder: DKIAALEAKNAALKAEIAALKAKNAALKG [4H2512-AA]
observable: interaction score
measured value: -1.5

(P) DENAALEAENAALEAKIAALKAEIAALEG [4H1193-AA]
(Q) DEIAALKAKNAALKAKNAALKAEIAALEG [4H1017-AA]
(R) DENAALEAKIAALKAKNAALKAKIAALEG [4H1405-AA]
(S) DKIAALKAEIAALKAKNAALKAKNAALEG [4H2687-AA]
Q) List the 4 entries from lowest interaction score to highest interaction score value. Please respond by ranking the labels in the order requested.
A) Q, R, S, P

This collection of values is drawn from paper PMC10397247.
